- Read-out: Epidermal growth factor receptor (EGFR), EGFR (gene 1956)
- assay procedure: BSK_hDFCGF_EGFR: BioMAP Diversity Plus: hDFCGF Assay for Epidermal growth factor receptor (EGFR) Biomarker Activity (AID 2283057)
- conditions: primary human foreskin fibroblasts; actives raise or lower the signal
The source made the active and inactive calls. Rule for the calls: active = hit-call score of the fitted dose curve at least 0.9, where 1 is the maximum; inactive = score below 0.9.
Could you please pick one outcome from this set? active, inactive

Use these answered entries as a reference point.
CCOC(=O)C(O)(c1ccc(Cl)cc1)c1ccc(Cl)cc1 ... inactive
CCOP(=S)(OCC)SCSC(C)(C)C ... inactive

Task item: Record request — test call for Oc1ccc(Cl)cc1Cl
Reply: inactive

Task item: Record request — test call for Nc1ccc(-c2ccc(N)cc2)cc1
Reply: inactive

Task item: Record request — test call for C=CC(=O)NCNC(=O)C=C
Reply: inactive

Task item: Record request — test call for Sc1ccccc1
Reply: inactive

Task item: Record request — test call for CCCCCCCCCc1ccc(O)cc1
Reply: inactive

Task item: Record request — test call for CCCCCCCCCC[N+](C)(C)CCCCCCCCCC
Reply: active

Task item: Record request — test call for O=C(O)C(F)(F)C(F)(F)C(F)(F)C(F)(F)C(F)(F)C(F)(F)C(F)(F)C(F)(F)F
Reply: inactive

----------
- assay procedure: APR_HepG2_p53Act_24hr: Apredica 24-hour HepG2 Assay for p53 Activation (AID 2282913);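 note: p53 protein immunofluorescence averaged per cell in HepG2 with Hoechst nuclei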
- conditions: high-content imaging, actives raise or lower the signal
Activity calls are given as the source filed them. Rule for the calls: active = hit-call score of the fitted dose curve at least 0.9, where 1 is the maximum; inactive = score below 0.9.
Could you please pick one outcome from this set? active, inactive

Use these answered entries as a reference point.
Cc1cc(O)ccc1Cl ... inactive
C1CC2OC2CC1C1CO1 (configuration not stated) ... inactive
CCOC(=O)C(O)(c1ccc(Cl)cc1)c1ccc(Cl)cc1 ... active
CN(C)CCO ... inactive
ClC1=C(Cl)[C@]2(Cl)[C@@H]3[C@H]4C[C@H]([C@@H]5O[C@H]45)[C@@H]3[C@@]1(Cl)C2(Cl)Cl ... inactive

Task item: Record request — test call for Clc1ccc(C(c2ccccc2Cl)C(Cl)(Cl)Cl)cc1 (configuration not stated)
Reply: active

Task item: Record request — test call for CCOP(=S)(OCC)SCSC(C)(C)C
Reply: inactive

Task item: Record request — test call for N#Cc1ccc(N(CC(N)=O)CC(F)(F)F)cc1C(F)(F)F
Reply: inactive

Task item: Record request — test call for O=C(O)C(F)(F)C(F)(F)C(F)(F)C(F)(F)C(F)(F)C(F)(F)C(F)(F)C(F)(F)C(F)(F)F
Reply: active

Task item: Record request — test call for O=S(=O)(O)C(F)(F)C(F)(F)C(F)(F)C(F)(F)C(F)(F)C(F)(F)F
Reply: inactive

Task item: Record request — test call for Oc1ccc(C(c2ccc(O)cc2)(C(F)(F)F)C(F)(F)F)cc1
Reply: inactive

Task item: Record request — test call for ClC(Cl)=C(c1ccc(Cl)cc1)c1ccc(Cl)cc1
Reply: active

----------
- Read-out: JUN Transcription Factor, JUN (gene 3725)
- assay procedure: LTEA_HepaRG_JUN: Life Technologies and Expression Analysis (LTEA) Assay for JUN Transcription Factor using HepaRG (AID 2283513)
- conditions: mRNA level, 48 h; actives raise or lower the signal
The source made the active and inactive calls. Rule for the calls: active = hit-call score of the fitted dose curve at least 0.9, where 1 is the maximum; inactive = score below 0.9.
Could you please pick one outcome from this set? yes (active), no (inactive)

Cc1cc2c3c(c1)C(c1ccccc1)=N[C@@H](NC(=O)c1ccncc1)C(=O)N3CC2 ... yes

Task item: Record request — test call for CCOC(=O)C(O)(c1ccc(Cl)cc1)c1ccc(Cl)cc1
Reply: no

Task item: Record request — test call for CC(c1ccc(O)cc1)(c1ccc(O)cc1)c1ccc(O)cc1
Reply: yes

Task item: Record request — test call for O=S(=O)(O)C(F)(F)C(F)(F)C(F)(F)C(F)(F)F
Reply: no

Task item: Record request — test call for CC(C)C(=O)OCC(C)(C)C(OC(=O)C(C)C)C(C)C (stereo not given)
Reply: no
